Origin of values: patent US12404285B2

- Study Target: KRAS (G12D)-HiBit in AsPc-1-KRAS (G12D)-HiBit-KI cell (Homo sapiens, UniProt P01116, G12D)
- Construct: host or cells: AsPc-1-KRAS (G12D)-HiBit-KI cells (knock-in line)
- Sequence (P01116 1-188 isoform P01116-2 G12D): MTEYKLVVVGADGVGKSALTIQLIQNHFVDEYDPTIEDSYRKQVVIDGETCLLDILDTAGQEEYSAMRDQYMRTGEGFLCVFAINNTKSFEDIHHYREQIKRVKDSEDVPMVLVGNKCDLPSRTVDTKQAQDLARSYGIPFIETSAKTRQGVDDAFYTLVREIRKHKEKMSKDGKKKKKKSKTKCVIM
- Experimental Details: G12D HiBit assay
- Assay type: cell-based
- Condition Info: 24 hours compound treatment, absolute DC50, read-out: Average PHA DC50
Listing: DC50 of selected compounds

Solved cases (2 shown):
Measured DC50, C#Cc1c(F)ccc2cccc(-c3ncc4c(N5CC6CCC(C5)N6)nc(OC[C@@]56CCCN5[C@H](COC(=O)N5CCC(CN7CC(Oc8cccc9c8n(C)c(=O)n9C8CCC(=O)NC8=O)C7)CC5)CC6)nc4c3F)c12 (stereo partly drawn) : < 100 nM

Measured DC50, C#Cc1c(F)ccc2cccc(-c3ncc4c(N5CC6CCC(C5)N6)nc(OC[C@@]56CCCN5[C@H](COC(=O)N5CCN(CCC7CCN(Cc8ccc9c(c8)n(C)c(=O)n9C8CCC(=O)NC8=O)CC7)CC5)CC6)nc4c3F)c12 (stereo partly drawn) : < 100 nM

Now for the compound whose DC50 we want.
Measured DC50, C#Cc1c(F)ccc2cccc(-c3ncc4c(N5CC6CCC(C5)N6)nc(OC[C@@]56CCCN5[C@H](COC(=O)N(C)CCC5CCN(Cc7cccc8c7n(C)c(=O)n8C7CCC(=O)NC7=O)CC5)CC6)nc4c3F)c12 (stereo partly drawn) : < 100 nM

* * *

Listing: DC50 of selected compounds
- Study Target: KRAS (G12D)-HiBit in AsPc-1-KRAS (G12D)-HiBit-KI cell (Homo sapiens, UniProt P01116, G12D)
- Construct: host or cells: AsPc-1-KRAS (G12D)-HiBit-KI cells (knock-in line)
- Experimental Details: G12D HiBit assay
- Format: cell-based
- Condition Info: 24 hours compound treatment, absolute DC50, read-out: Average PHA DC50

Solved cases (10 shown):
Measured DC50, C#Cc1c(F)ccc2cccc(-c3ncc4c(N5CC6CCC(C5)N6)nc(OC[C@@]56CCCN5[C@H](COC(=O)NCCCC(=O)N5CCC(c7cccc8c7n(C)c(=O)n8C7CCC(=O)NC7=O)CC5)CC6)nc4c3F)c12 (some centres unmarked) : ≥ 300 nM

Measured DC50, C#Cc1c(F)ccc2cccc(-c3ncc4c(N5CC6CCC(C5)N6)nc(OC[C@@]56CCCN5[C@H](COC(=O)N5CC(CN7CCN(c8cccc9c8n(C)c(=O)n9C8CCC(=O)NC8=O)CC7)C5)CC6)nc4c3F)c12 (some centres unmarked) : 100 to 300 nM

Measured DC50, C#Cc1c(F)ccc2cccc(-c3ncc4c(N5CC6CCC(C5)N6)nc(OC[C@@]56CCCN5[C@H](COC(=O)NCCOCCN5CCN(c7cccc8c7n(C)c(=O)n8C7CCC(=O)NC7=O)CC5)CC6)nc4c3F)c12 (some centres unmarked) : ≥ 300 nM

Measured DC50, C#Cc1c(F)ccc2cccc(-c3ncc4c(N5CC6CCC(C5)N6)nc(OC[C@@]56CCCN5[C@H](COC(=O)N5CCC(OC7CCN(Cc8cccc9c8n(C)c(=O)n9C8CCC(=O)NC8=O)CC7)CC5)CC6)nc4c3F)c12 (some centres unmarked) : < 100 nM

Measured DC50, C#Cc1c(F)ccc2cccc(-c3ncc4c(N5CC6CCC(C5)N6)nc(OC[C@@]56CCCN5[C@H](COC(=O)N5CCC(OCCC#Cc7ccc8c(c7)n(C)c(=O)n8C7CCC(=O)NC7=O)CC5)CC6)nc4c3F)c12 (some centres unmarked) : < 100 nM

Measured DC50, C#Cc1c(F)ccc2cccc(-c3ncc4c(N5CC6CCC(C5)N6)nc(OC[C@@]56CCCN5[C@H](COC(=O)N5CCC(OC7CN(Cc8ccc9c(c8)n(C)c(=O)n9C8CCC(=O)NC8=O)C7)CC5)CC6)nc4c3F)c12 (some centres unmarked) : < 100 nM

Measured DC50, C#Cc1c(F)ccc2cccc(-c3ncc4c(N5CC6CCC(C5)N6)nc(OC[C@@]56CCCN5[C@H](COC(=O)N5CCC(C7CCN(c8ccc9c(c8)n(C)c(=O)n9C8CCC(=O)NC8=O)CC7)CC5)CC6)nc4c3F)c12 (some centres unmarked) : ≥ 300 nM

Measured DC50, C#Cc1c(F)ccc2cccc(-c3ncc4c(N5CC6CCC(C5)N6)nc(OC[C@@]56CCCN5[C@H](COC(=O)N5CCC(CCN7CCN(Cc8ccc9c(c8)n(C)c(=O)n9C8CCC(=O)NC8=O)CC7)CC5)CC6)nc4c3F)c12 (some centres unmarked) : < 100 nM

Measured DC50, C#Cc1c(F)ccc2cccc(-c3ncc4c(N5CC6CCC(C5)N6)nc(OC[C@@]56CCCN5[C@H](COC(=O)NCCCCC(=O)N5CCN(c7ccc(N8CCC(=O)NC8=O)cc7)CC5)CC6)nc4c3F)c12 : ≥ 300 nM

Measured DC50, C#Cc1c(F)ccc2cccc(-c3ncc4c(N5CC6CCC(C5)N6)nc(OC[C@@]56CCCN5[C@H](COC(=O)N5CCC7(CC5)CN(CC#Cc5cccc8c5n(C)c(=O)n8C5CCC(=O)NC5=O)CCO7)CC6)nc4c3F)c12 (some centres unmarked) : ≥ 300 nM

Now for the compound whose DC50 we want.
Measured DC50, C#Cc1c(F)ccc2cccc(-c3ncc4c(N5CC6CCC(C5)N6)nc(OC[C@@]56CCCN5[C@H](COC(=O)N5CCC(N7CCC(Cc8cccc9c8n(C)c(=O)n9C8CCC(=O)NC8=O)CC7)CC5)CC6)nc4c3F)c12 (some centres unmarked) : 100 to 300 nM
